# TARGET: human cGAS (residues 161-522) (Homo sapiens, UniProt Q8N884)
# Construct: human cGAS (residues 161-522)
# Sequence (Q8N884 161-522): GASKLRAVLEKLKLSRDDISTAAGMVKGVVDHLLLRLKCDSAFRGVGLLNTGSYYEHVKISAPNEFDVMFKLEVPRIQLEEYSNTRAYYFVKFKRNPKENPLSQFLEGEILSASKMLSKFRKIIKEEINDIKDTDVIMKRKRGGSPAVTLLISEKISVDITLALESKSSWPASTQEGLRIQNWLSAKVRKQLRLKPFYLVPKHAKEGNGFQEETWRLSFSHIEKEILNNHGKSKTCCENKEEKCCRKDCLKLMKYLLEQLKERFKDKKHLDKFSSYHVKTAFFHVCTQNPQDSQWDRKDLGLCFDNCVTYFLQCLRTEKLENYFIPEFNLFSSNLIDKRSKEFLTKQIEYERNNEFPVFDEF
# METHOD_DESCRIPTION: cGAS Activity Assay—Malachite Green
# COND: recombinant purified human cGAS 25 nM; 80 μM ATP, 80 μM GTP, 100 nM ISD; 4 hour at RT; phosphate detection by Malachite Green
pIC50: −log10 of the molar value.
// values below are reported pIC50
EXPERIMENTAL_READOUT: pIC50

INSERT INTO measurements (structure_notation, recorded_number) VALUES
  ('COc1ccc(S(=O)(=O)c2ccc(NC(=O)/C(C#N)=C(\O)c3cnoc3C)cc2)cc1', 6.31),
  ('Cc1oncc1/C(O)=C(\C#N)C(=O)Nc1cccc(Oc2ccccc2)c1', 5.76),
  ('Cc1cc(NC(=O)/C(C#N)=C(\O)c2cnoc2C)ccc1C(F)(F)F', 5.72),
  ('Cc1oncc1/C(O)=C(\C#N)C(=O)Nc1ccc(CC(=O)O)cc1', 6.33),
  ('Cc1oncc1/C(O)=C(\C#N)C(=O)Nc1ccc(Oc2ccccc2)cn1', 5.99),
  ('Cc1oncc1/C(O)=C(\C#N)C(=O)Nc1cccc(S(C)(=O)=O)c1', 5.82),
  ('Cc1oncc1/C(O)=C(\C#N)C(=O)Nc1ccc(S(=O)(=O)N(C)C)cc1', 6.77),
  ('Cc1oncc1/C(O)=C(\C#N)C(=O)Nc1ncc(S(C)(=O)=O)c(CCc2ccccc2)n1', 6.70),
  ('Cc1oncc1/C(O)=C(\C#N)C(=O)Nc1ncc(S(=O)(=O)N(C)C)cn1', 7.15),
  ('Cc1oncc1/C(O)=C(\C#N)C(=O)Nc1ccc(S(C)(=O)=O)cn1', 7.00),
  ('CSc1ccc(NC(=O)/C(C#N)=C(\O)c2cnoc2C)cc1', 6.17),
  ('Cc1oncc1/C(O)=C(\C#N)C(=O)Nc1ncc(CC2CCCCC2)cn1', 6.80),
  ('CCN(CC)C(=O)CNS(=O)(=O)c1ccc(NC(=O)/C(C#N)=C(\O)c2cnoc2C)cc1', 6.52),
  ('Cc1oncc1/C(O)=C(\C#N)C(=O)Nc1ccc(C#N)cc1', 6.10),
  ('COCCOc1cnc(NC(=O)/C(C#N)=C(\O)c2cnoc2C)nc1', 7.10),
  ('Cc1oncc1/C(O)=C(\C#N)C(=O)Nc1ccc(S(=O)(=O)Nc2nccs2)cc1', 6.85),
  ('Cc1oncc1/C(O)=C(\C#N)C(=O)Nc1ccc(OC2COC2)cc1', 5.89),
  ('COCCNS(=O)(=O)c1ccc(NC(=O)/C(C#N)=C(\O)c2cnoc2C)cc1', 7.15);
